# System: L1210
# ASSAY COMMENT: In vitro cytotoxic activity, L1210
# Format: cell-based
# EXPERIMENTAL CONTEXT: L1210 in vitro cytotoxic activity
pIC50: −log10 of the molar value.
// label = rule met if pIC50 is not less than 8, otherwise rule not met

Here's what some known entries look like.
MOLECULE	CATEGORY LABEL
COC(=O)c1cc2c([nH]1)[C@@]13C[C@@H]1CN(C(=O)c1cc4cc(OC)c(OC)c(OC)c4[nH]1)C3=CC2=O [Compound 5, iso-duocarmycin SA]	rule met
COC(=O)c1cc2c([nH]1)[C@@]13C[C@@H]1CN(C(=O)OC(C)(C)C)C3=CC2=O [(+)-7, N-Boc-iso-DSA]	rule not met
COC(=O)c1cc2c([nH]1)C(=O)C=C1N(C(=O)OC(C)(C)C)CC3CC123 (single isomer, unassigned; (-)) [(−)-8, N-Boc-DSA, reference compound]	rule not met
COC(=O)c1cc2c([nH]1)[C@@]13C[C@@H]1CN(C(=O)OC(C)(C)C)C3=CC2=O [(−)-7, N-Boc-iso-DSA]	rule not met
COC(=O)c1cc2c([nH]1)C(=O)C=C1N(C(=O)c3cc4cc(OC)c(OC)c(OC)c4[nH]3)CC3CC123 (single isomer, unassigned; (-)) [(−)-1, duocarmycin SA, reference compound]	rule met
COC(=O)c1cc2c([nH]1)[C@@]13C[C@@H]1CN(C(=O)c1cc4cc(OC)c(OC)c(OC)c4[nH]1)C3=CC2=O [(+)-5, iso-duocarmycin SA]	rule met

Q: hey, is pIC50 for this one >= 8? COC(=O)c1cc2c([nH]1)C(=O)C=C1N(C(=O)c3cc4cc(OC)c(OC)c(OC)c4[nH]3)CC3CC123 (single isomer, unassigned; (+)) [(+)-1, duocarmycin SA, reference compound]
A: rule met

Q: Could you tell me if the measured pIC50 of COC(=O)c1cc2c([nH]1)[C@@]13C[C@@H]1CN(C(=O)c1cc4cc(OC)c(OC)c(OC)c4[nH]1)C3=CC2=O [(−)-5, iso-duocarmycin SA] reaches 8 or more?
A: rule met
